# method-summary: protein stability index of a GFP-peptide fusion (yeast GPS) (PSI 1-4); higher = more stable; sorted into four equal gates, so the index is relative within each strain
# conditions-used: pdr5∆
value-type: protein stability index

- KLSQYVQEMALGGPITK [FAS2]: 2.74
- DAYYDLELRNSVMDDIL [PRP8]: 3.04
- QRITIPNVCNMKQYRDF [PRP28]: 2.55
- AAGALFVSSGFDTSIKL [RPN14]: 2.52
- TIYYVDSDGTRLKGDIF [PRE2]: 3.24
- ICEPKETLSIFTNVPLN [YJL039C/NUP192]: 2.24
- SWEEGTRQSSRNFDTHE [MCD1]: 3.59
- LFSKNRNEVLESMDFLV [YCS4]: 2.19
- PASNILRRTTQRVFDET [YDL116W/NUP84]: 2.66
- STGLKSASDALKGRVVE [RPS1A]: 3.31
- NQSFIQQKANLLSSSNF [COR1]: 1.91
- FNAGSNPPSYQSSEDVI [RPB7]: 2.67
- SGNLPLNELSAKDKEIY [RPN13]: 3.32
- EWRKSAIANTLLYLRLK [PRP8]: 1.54
